Each entry below lists one item and its recorded IC50 value.
- Test system: HepG-2 cells
- assay_info: MTT cytotoxicity assay, HepG-2
- Type: cell-based, human
- assay_context: 72 h; mean ± SD, three independent experiments
measured_metric: IC50 (µM)

CCOP(=O)(OCC)C(C)(NC(=O)c1cc(O)c2c(c1)C(=O)c1cccc(O)c1C2=O)c1ccc(C)cc1 (centres unmarked): 15.1
CCOP(=O)(OCC)C(C)(CCc1ccccc1)NC(=O)c1cc(O)c2c(c1)C(=O)c1cccc(O)c1C2=O (centres unmarked): 8.82
